- test_protocol: inhibitors of CD8+ T cell-vesicle binding, pilot screen, LFA-1/ICAM-1 modulator project, MLPCN validation set, flow cytometry (AID 2523);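 note: mean PE anti-B7-1 fluorescence of CD8+ cells relative to row control; 100% = QL9-loaded vesicles with DMSO vehicle in the same plate row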
- setup_conditions: 2C mouse CD8+ T cells, at 7 µM, active compounds read low
measurement_kind: vesicle binding response (%)

INSERT INTO assay_data (compound, unit_name, measured) VALUES
  ('O=C1C2C3C=CC(C4CC34)C2C(=O)N1/N=C/c1ccc(-c2ccc([N+](=O)[O-])cc2)o1 (stereo not drawn)', '%', 153),
  ('CCN(CC)CCNC(=O)c1cc(S(C)(=O)=O)ccc1OC', '%', 219),
  ('Cc1nnc(SCC(=O)N2CCCC(C(=O)c3ccc(Cl)cc3)C2)o1 (stereo not drawn)', '%', 299),
  ('COC(=O)c1cc(C(=O)NCCC(C)C)cc([N+](=O)[O-])c1', '%', 229),
  ('COc1ccc(CCNC(=O)CC(c2ccccc2)c2cccc(C)c2O)cc1OC (stereo not drawn)', '%', 190),
  ('Cn1c2[n+](c3ccc(Cl)cc3c1=O)Cc1ccccc1-2', '%', 278),
  ('COCCCC/C(=N\OCCN)c1ccc(C(F)(F)F)cc1', '%', 182),
  ('O=C(Nc1ccc(Oc2c(F)c(F)c(F)c(F)c2F)cc1)OC1CCN2Cc3ccccc3N=C12 (stereo not drawn)', '%', 123),
  ('CC(=O)O[C@]1(C(C)=O)CC[C@H]2[C@@H]3C=C(Cl)C4=CC(=O)CC[C@]4(C)[C@H]3CC[C@@]21C', '%', 201),
  ('C[C@H](NC(=O)OC(C)(C)C)C(=O)NCC1CCC(C(=O)O)CC1 (stereo partly drawn)', '%', 166),
  ('Clc1ccc2c(c1)C(N1CCNCC1)=Nc1ccccc1O2', '%', 200),
  ('CCNCCC(CCC(C)C)c1ccc2c(c1)OCO2 (stereo not drawn)', '%', 233),
  ('Cc1ccccc1C(OCCN(C)C)c1ccccc1 (stereo not drawn)', '%', 111),
  ('Cc1ccc2c(c1)c1c(n2C)C(=O)CCC1', '%', 126),
  ('COc1ccc(/C=C2\CCn3c2nc2cc(C(=O)O)ccc2c3=O)cc1OC', '%', 178),
  ('CC(COc1ccccc1)N(CCCl)Cc1ccccc1 (stereo not drawn)', '%', 566),
  ('CCOc1cc(C)cc2oc(=O)cc(-c3ccccc3)c12', '%', 138),
  ('NS(=O)(=O)c1cc2c(cc1C(F)(F)F)NCNS2(=O)=O', '%', 205),
  ('Nc1ncnc2c1ncn2C1OC(CO)C(O)C1O (stereo not drawn)', '%', 175),
  ('O=C1N[C@@H](Cc2cnc[nH]2)C(=O)N2CCC[C@@H]12', '%', 103),
  ('COc1ccc(-c2[nH]ncc2C=O)cc1OC', '%', 201),
  ('CN1[C@@H](CC(=O)c2ccccc2)CCC[C@H]1C[C@H](O)c1ccccc1', '%', 176),
  ('Cc1ccccc1NC(=O)C1c2ccccc2Oc2ccccc21', '%', 217);
